Assay: protease stability score; higher = more stable; yeast display proteolysis, trypsin and chymotrypsin;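 note: log10 excess protease needed over predicted unfolded state with 0 meaning unfolded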
So basically: protease stability score at 0.2 or higher? That is Criterion met. Lower than 0.2? That is Criterion not met.

Consider the following illustrative entries.
DEEDVTRLAEEMVRAFESGNPEDWVKMLDENARVRIGDKVYHGREQVQTFANSWVSRADHARVESFSVHGDNIHIKAVMDIDGVRVQVIIVARAHNGRVQELRVEWRNEDQKKHVDK    Criterion met
DEENKKQAERLYTALEKNNPEELKKLADPNARVEVGDTTYHGMRKFLRDLAQTLKELRVEVIEIEIDVQGNQVTAHVHVRVEKNGQPDEFVLIFHFELSNGRIKRVRVERHQ    Criterion met
DEEAEDLVKELWKAWKHNDPDTWVKQLPPDARISVGNKEVHGREQARHEFERQVERMQVRLKVDSVHNRGNKAHFHVTVDASVNGKPVTFTVEVVITFHNGKAKYIEMRMSEEQFDKFQG    Criterion met
DREAKNVFEKLTKAFETGNEDDMRKLLDEDVRFNIGDREVHGREQAVEDLKRKRTQMRVDIHHVDQQNEPNRLSVNVRMVVEHNGRPRDVQRHAVFDVHNGRIKSVKEKDRQ    Criterion not met
EEESHQVAENIARILQTNDPRRLAELMDENARVRVGDTQLSGREDIEKQMDKEMKEIRVEIKNYEIDAKGEKIDIDVDQVFVHNGKPDRQRVKYDFDLRNGQIKRASVSVHK    Criterion not met

Data request: # check: protease stability score of DEHDITKIMEEIAKVIRNNDEKRLVEMADPNVRVIVGDKEFQGRDEMEKFNHEYSRQADKVQVVSVNVNGNRITIEVTANINGRDLQFVVVFEIKNGTIENVHVNFTNPEVLRQAES is greater than or equal to 0.2
Data returned: Criterion met

Data request: Also need DDEDWHRLAERLFTALRTGDWKELLKMMDPNVNINIGDQTYHGRKDLKNWAQHMREEVDHVEIKSIRIQGNKIVLDITYVTNGQRQNVIFVFSIHNGKVKHVHAKTK , thanks.
Data returned: Criterion met

Data request: Also need DHEREAKHFVDDWVRALRTGDSKTIEELMDPNVTLRVGDQKLHGRSQNSDQVRRWKERVDTIDVKVRSINKTGDHMRVHVDVVMDINGEKDNKELVINFDKHNGRLIVKHASYG , thanks.
Data returned: Criterion not met

Data request: Also need DEELKKVVDRMMKAITEGNPDKVRHLMDKDVKVDIGDKRIQGNEQNARDNEKSQNHLEESLDVKRVDNKGDKATVHLTVHVNHNGKPETFKLDIHVQAHNGKVKNMNFQKRP , thanks.
Data returned: Criterion not met

Data request: Also need DEDATDNVRQWFEARNQNDENRLMQLVDPNAKIQVGDKFVHGKEDLEKQVKREKDQIHLHMKDMKFTDTGDTVKVRIDYRDEHNGRPKEDRMVAYATVHNGRIENLEVDSDR , thanks.
Data returned: Criterion not met

Data request: Also need EQDQIRRLKTFIKIIDHNNPSKVRELLDKDVHIDIGDKVIRGREEYADEIHKLQKEMRVKLQVDDIKDHGEHVHFTARWYARVNGRPRTNEIHVQARAHNGHVTSIKVHMDPRVLKEMRS , thanks.
Data returned: Criterion not met

Data request: Also need DTQALKHARSVLEDNDWDKLQKLADKDARATVGDTTYHGREDIQTWLKRAEETVDHVNIKSISIDEDSISVRFVMNVNGKTVEMVITIQLHNGRIKFLRIQARSEEQEKTIHEVVD , thanks.
Data returned: Criterion not met

Data request: Also need DQDALRKWEEILKAMETGDREKVAQLVDPNARVVYGDKEVRGRESIRKRVKEIRDELRFSMELKRFDDHNGRASATLKMNAEHNGQPIHRTASVEIEVQNGRIKSMEIQLRG , thanks.
Data returned: Criterion not met

Data request: Also need DSHLQEEVERFWKQLEHGNRQNLRELADEEVNFVYGDKTIHGREKAATHMSKRVRKIQIEWKTYSAEVHNGKLDATAEWRADHNGKPKDVKMTFYVKVHNGRIKEVNIQEEK , thanks.
Data returned: Criterion not met

Data request: Also need DEQKDDKRSKDIKKQVEKGNEHEILKLFDKDAKVRVGDKVVQGRESIKDEIHHLRRRVDNIEVKEVHAQGDKVTVDVQVDVNGVQIRQVLHIQMNNGKVTDAKVEFTNEEQLRQMHG , thanks.
Data returned: Criterion not met

Data request: Also need DEKKAQKLMKKAFKMIKDGNEDEVRKLGKPNVKYEYADQQYEGEDAVRVAVQIVKRVGAEDKTETQEVKGDTARAVFVYKKGDTEVQTTAEVIYKGDKMEEARVKLSDEVKKVVHQG , thanks.
Data returned: Criterion not met

Data request: Also need DESEMQKAVEDIVKMLETGNETKFQENAPPDVRVDVGDKRFTGREDLRKWVHDVKERVDRIRVTHYSAHGEDVVIDVVYRHNGTNERANIVVHIHNGRMVQMKVQQS , thanks.
Data returned: Criterion met

Data request: Also need DEEQNKLADTAMEAWNHGDPDQMVKMLDPNARVRYGDKQFHGRTDVKKWMKRLNDQARMSVTHYKIRVKGEKALLTARLEFEINGQPFRRHVKVVFNNHNGKAKQVDWQFDQDKQRKIES , thanks.
Data returned: Criterion not met

Data request: Also need DEDVEDRVRRFLEQVNHNNPQDLSKYMDPNARLDIGDKVLHGREDIHKFWEDLIRESRIEVREMDVKVHNGRVSATVRFVEHENGNPRETVMKITATWSNGRAQFMRFQSDG , thanks.
Data returned: Criterion met

Data request: Also need DERDLEEVNRLVKHGNWHEFVKNADKNVRARVGDKRVHGREHFKSLAENWRRRIDHQSIKFVDVQGERAVVTMKMNVNGKTVEVMFSFVVSNGHIKEYEMRARNDDDETRLQEVRS , thanks.
Data returned: Criterion met

Data request: Also need DEDAVRKAIELFKQQETGNPEEVKKLADPNARMVVGDKTFTGMDTINEHLRKLRKEARIRNDIKRYEVNGDKATIEFRQERDHNGRPDTHLVKITIKVTNGRVKVIEIQDKS , thanks.
Data returned: Criterion not met
